ASSAY INFO: in vitro
CONDITIONS USED: human, hela cells, % viability
MEASUREMENT LABEL: viability at 28.5 h, 10 µM (%)
The reply should contain only the number, in %.

Some compounds with known viability at 28.5 h, 10 µM results, for comparison:
Input line: Need viability at 28.5 h, 10 µM of CCc1nn(CC(=O)N2CCCC2)c(=O)c2cc3sccc3n12 , thanks.
Output line: 85.8

Input line: Follow-up item: Cc1cc(OC(C)C(=O)Nc2ccccc2C(=O)N2CCCCC2)ccc1Cl (stereo not shown)
Output line: 104

Input line: Follow-up item: COc1ncccc1C(=O)N1Cc2ccccc2C1
Output line: 101

Input line: Follow-up item: COc1cc(/C=N/n2c(S)nnc2C(F)(F)F)cc(Br)c1O
Output line: 74.2

***
Input line: Need viability at 28.5 h, 10 µM of O=S1(=O)CC(OS(=O)(=O)c2ccc(Cl)cc2)C(OS(=O)(=O)c2ccc(Cl)cc2)C1 (stereo not shown) , thanks.
Output line: 104

Input line: Follow-up item: CN1CCN(c2cc(N3CCN(C)CC3)c([N+](=O)[O-])cc2C2Nc3ccc4ccccc4c3C3=C2C(=O)CC(C)(C)C3)CC1 (stereo not shown)
Output line: 93.9

Input line: Follow-up item: CCOc1ccc(NC(=O)Nc2ccc(CC(=O)O)cc2)cc1
Output line: 112

Input line: Follow-up item: COc1cc2c(cc1OC)CN(C(=O)CSc1nc3c(c(-c4cccs4)c1C#N)CN(C)CC3)CC2
Output line: 91.3

Input line: Follow-up item: O=C(Nc1cccc(C(=O)O)c1)Nc1cccc(-c2ccccc2)c1 [CBK155451G]
Output line: 93.5

Input line: Follow-up item: Cc1ccc(-n2ncc3c(=O)n(CC(=O)N4CCCCC4)cnc32)cc1
Output line: 101

Input line: Follow-up item: C=C(C)Cn1c(Cc2ccccc2)nnc1SCC(C)C
Output line: 102

----------
Test system: HeLa
CONDITIONS USED: bulk resorufin, single well, 28.5 h, 10 µM, Bulk resorufin fluorescence
Measured % viability, listed per entry.
The reply should contain only the number, in %.

Input line: Need % viability of C[C@H]1CN2CCCC2CN1Cc1cccc(F)c1 (stereo partly drawn) , thanks.
Output line: 104

***
Input line: Need % viability of CCOc1ccc(-c2ccnc(NC[C@@H]3CCCO3)n2)cc1C(=O)O , thanks.
Output line: 89.2

----------
Measured viability at 28.5 h, 10 µM, listed per entry.
ASSAY INFO: in vitro
CONDITIONS USED: human, hela cells, % viability
The reply should contain only the number, in %.

Input line: Need viability at 28.5 h, 10 µM of O=C(N[C@@H](Cn1cc(Cl)c(=O)[nH]c1=O)C(=O)O)C1CCCCC1 , thanks.
Output line: 98.7

Input line: Follow-up item: CCOCCn1c(CN2CCOCC2)nc2c1c(=O)n(C)c(=O)n2C
Output line: 105

Input line: Follow-up item: Nn1cnnc1SC1CCCCC1NS(=O)(=O)c1ccccc1 (centres unmarked)
Output line: 95.7

Input line: Follow-up item: Nc1ncn(CC(O)CO)c2nc(N3CCOCC3)nc1-2 (centres unmarked)
Output line: 90.8

Query compound follows.
Input line: Need viability at 28.5 h, 10 µM of COc1ccc(C)cc1S(=O)(=O)Nc1cc(OCCN2CCOCC2)c2occc2c1 [CBK067419C] , thanks.
Output line: 87.7

----------
Measured viability at 28.5 h, 10 µM, listed per entry.
ASSAY INFO: in vitro
CONDITIONS USED: human, hela cells, % viability
The reply should contain only the number, in %.

Input line: Need viability at 28.5 h, 10 µM of Cn1c(=O)c(-c2ccccc2)nc2ccccc21 , thanks.
Output line: 143

Input line: Follow-up item: COc1ccccc1N1CCN(C(=O)CCCC(=O)O)CC1
Output line: 80.8

Input line: Follow-up item: O=C(Cn1ncc2ccccc2c1=O)NNC(=S)Nc1ccc2c(c1)OCO2
Output line: 100

Input line: Follow-up item: O=C(c1cc(F)c(F)cc1F)N1CCC2(CCN(Cc3cccc(C(F)(F)F)c3)C2)C1 (centres unmarked)
Output line: 102

***
Input line: Need viability at 28.5 h, 10 µM of O=C1NC2=NOCCC2=CN1[C@H]1C[C@@H](O)[C@@H](CO)O1 , thanks.
Output line: 96.8

----------
ASSAY INFO: in vitro
CONDITIONS USED: human, hela cells, % viability
Rule for this label: T means viability at 28.5 h, 10 µM is less than 90%; F means viability at 28.5 h, 10 µM is at least 90%.

Input line: is_below(viability at 28.5 h, 10 µM, 90%) for CN(C)C(=O)c1ccc(-c2cnc(OCC3CCN(C(=O)OC(C)(C)C)CC3)cn2)cc1F ?
Output line: F

***
Input line: is_below(viability at 28.5 h, 10 µM, 90%) for Cc1ccc(Cc2cnc(NC(=O)C3CCOCC3)s2)cc1F ?
Output line: T

Input line: Follow-up item: OC1(CCCN2CCOCC2)C2CCCC1CN(Cc1ccccc1)C2 (stereo not drawn) [CBK025076C]
Output line: F

Input line: Follow-up item: N#CCCCN1CCC(Oc2nccnc2OCc2cc(Cl)cc(Cl)c2)CC1
Output line: F

Input line: Follow-up item: CC(C)(C)OC(=O)NCC(N)=S
Output line: F

Input line: Follow-up item: N#Cc1c(NC(=O)CSc2nc(-c3ccco3)cc(C(F)(F)F)n2)sc2c1CCCC2
Output line: T

Input line: Follow-up item: O=C(Nc1ccc(Cc2ccncc2)cc1)c1ccc(CSc2ccc(Cl)cc2)cc1
Output line: T

Input line: Follow-up item: CCOC(=O)c1cnn(C)c1-c1ccc(F)cc1OC
Output line: F

----------
Measured viability at 28.5 h, 10 µM, listed per entry.
ASSAY INFO: in vitro
CONDITIONS USED: human, hela cells, % viability
The reply should contain only the number, in %.

Some compounds with known viability at 28.5 h, 10 µM results, for comparison:
Input line: Need viability at 28.5 h, 10 µM of N=c1sc(Cc2cc(Cl)ccc2Cl)cn1CC(=O)c1ccccc1 [CBK263584B] , thanks.
Output line: 89.6

Input line: Follow-up item: O=c1[nH]cc(COCc2ccccc2)c(=O)[nH]1
Output line: 94

Input line: Follow-up item: CN1CCN(CC(CC(=O)Nc2c(F)cccc2F)C(=O)O)CC1 (stereo not shown)
Output line: 92

Input line: Follow-up item: O=C(c1cccc(S(=O)(=O)Nc2ccccn2)c1)N1CCCc2ccccc21
Output line: 84.9

Input line: Follow-up item: O=C(COC(=O)c1ccc2c(c1)C(=O)N(c1cccc(Cl)c1)C2=O)c1ccc(Br)cc1
Output line: 94

Query compound follows.
Input line: Need viability at 28.5 h, 10 µM of Cc1ccc(C(=O)NCC(=O)O)cc1S(=O)(=O)N1CCOCC1 , thanks.
Output line: 90.9

----------
ASSAY INFO: in vitro
CONDITIONS USED: human, hela cells, % viability
Measured viability at 28.5 h, 10 µM, listed per entry.
The reply should contain only the number, in %.

Some molecules with known viability at 28.5 h, 10 µM results, for comparison:
Input line: Need viability at 28.5 h, 10 µM of COCCCNC(=O)C1CCCN(c2nc3c(-c4ccccc4)csc3c(=O)[nH]2)C1 (stereo not shown) [CBK215498] , thanks.
Output line: 94

Input line: Follow-up item: O=C(Cn1nnc2ccccc21)NCCN1CCCC1 [CBK267200]
Output line: 106

Input line: Follow-up item: CCOC(=O)C(C(=O)OCC)(N1CCOCC1)N1CCOCC1 [CBK261176]
Output line: 112

Input line: Follow-up item: Cc1ccc(-c2oncc2C(=O)NCc2cccs2)cc1 [CBK153679]
Output line: 95.7

Input line: Follow-up item: CCN(CC(=O)Nc1ccccc1OC)S(=O)(=O)c1ccccc1 [CBK269428]
Output line: 97.1

***
Input line: Need viability at 28.5 h, 10 µM of CN(C)c1ccccc1-c1cc(NCCc2ccccn2)ncn1 [CBK037189] , thanks.
Output line: 102

Input line: Follow-up item: Cc1cc(COC(=O)N2CCSCC2)cc(C)n1 [CBK200153]
Output line: 107

----------
ASSAY INFO: in vitro
CONDITIONS USED: human, hela cells, % viability
MEASUREMENT LABEL: viability at 28.5 h, 10 µM (%)
The reply should contain only the number, in %.

Input line: Need viability at 28.5 h, 10 µM of COC(=O)Nc1ncc(CN2CCc3ccccc3C2)s1 , thanks.
Output line: 97.5

***
Input line: Need viability at 28.5 h, 10 µM of c1ccc(CN2CCN(Cc3ccccc3)C2c2cccnc2)cc1 , thanks.
Output line: 93.2

Input line: Follow-up item: CN(C)CCN(Cc1cccs1)Cc1cc(Cl)ccc1O
Output line: 86.2

Input line: Follow-up item: O=C1COc2ccccc2C/C=C/C[C@H]2CN(C(=O)c3noc4c3CCCC4)CC[C@H]2N1
Output line: 116

Input line: Follow-up item: O=S(=O)(Cc1csc(N2CCOCC2)n1)c1ccccn1
Output line: 90.1

Input line: Follow-up item: O=C(Nc1cccnc1N1CCNCC1)c1ccc(-c2cccc(C(F)(F)F)c2)o1 [CBK034119T]
Output line: 90.1

Input line: Follow-up item: c1ccc(Oc2cccc(CN3CCC(N4CCN(c5ccccc5)CC4)CC3)c2)cc1 [CBK264662G]
Output line: 88

Input line: Follow-up item: Cc1cc(N(C)C)cc(C2CCCN(C(=O)c3cccc(F)c3)C2)n1 (stereo not drawn)
Output line: 95.1

Input line: Follow-up item: COc1ccc(C(=O)N2Cc3nc[nH]c3C[C@H]2c2nc(-c3ccc(OC)cc3)no2)cc1
Output line: 107
